For each record, write down the corresponding Hsp70 generation.
test system: Hsp70; format: cell-based; details: Dose 1.0 uM

So for COC(=O)[C@]1(C)CC[C@]2(C)CC[C@]3(C)C4=CCc5c(cc(OC(C)=O)c(OC(C)=O)c5C)[C@]4(C)CC[C@@]3(C)[C@@H]2C1 [dihydropristimerin diacetate] , the logged Hsp70 generation turned out to be .049

Item: Cc1c(O)c(O)cc2c1CC=C1[C@@]2(C)CC[C@@]2(C)[C@@H]3C[C@](C)(C(=O)O)CC[C@]3(C)CC[C@]12C [dihydrocelastrol] | Hsp70 generation: .052

Data point: COC(=O)[C@]1(C)CC[C@]2(C)CC[C@]3(C)C4=CC=C5C(=CC(=O)C(O)=C5C)[C@]4(C)CC[C@@]3(C)[C@@H]2C1 [pristimerin, reference compound] ; Hsp70 generation = 2.84

Hsp70 generation in this record for CC1=C(O)C(=O)C=C2C1=CC=C1[C@@]2(C)CC[C@@]2(C)[C@@H]3C[C@](C)(C(=O)O)CC[C@]3(C)CC[C@]12C [celastrol, reference compound] : .423
